Value source: paper PMC3830444

Molecular target: human α-thrombin (human, UniProt P00734 364-622)
Experiment: ELISA
Settings: both partners purified
Ends that are not written are not given here.
MEASUREMENT_LABEL: IC50 (nM)

binder="Ac-GDFEPIPEDAYDE [H6HV3_(54-66) synthetic peptide]" measurement_label=IC50 unit_label=nM numeric_readout=740
binder="Ac-GDFEPIPEDAYDE (not fully specified (C-terminus)) [H6HV3_(54-66)G6 synthetic peptide]" measurement_label=IC50 unit_label=nM numeric_readout=1400
